Biological target: Protein Wnt-2 (Mus musculus)
Sequence (P21552 whole entry): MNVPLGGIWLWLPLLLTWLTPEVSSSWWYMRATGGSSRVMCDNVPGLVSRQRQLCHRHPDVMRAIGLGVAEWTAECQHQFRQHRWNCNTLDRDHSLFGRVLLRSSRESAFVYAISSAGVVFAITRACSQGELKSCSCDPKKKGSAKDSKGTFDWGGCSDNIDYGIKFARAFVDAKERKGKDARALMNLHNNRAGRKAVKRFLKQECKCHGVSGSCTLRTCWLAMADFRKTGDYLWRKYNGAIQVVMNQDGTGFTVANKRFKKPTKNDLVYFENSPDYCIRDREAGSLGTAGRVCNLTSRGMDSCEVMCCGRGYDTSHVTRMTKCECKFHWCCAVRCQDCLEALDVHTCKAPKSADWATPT
Experiment: Wnt Inhibition Assay
Conditions: pH 7.4; 4 °C

>  <Smiles input>
N#Cc1ccccc1Cn1c(=O)n(C[C@H]2CC[C@H](C(=O)NCc3ccccc3)CC2)c(=O)c2ccccc21

>  <IC50 [nM]>
25

$$$$
